// data source = paper PMC5352491

molecular target: human μ opioid receptor (μ-OR) (Homo sapiens, UniProt P35372); test: cell-based; type: cell-based; conditions: read-out: EC50 μ-OR
Sequence (P35372 whole entry): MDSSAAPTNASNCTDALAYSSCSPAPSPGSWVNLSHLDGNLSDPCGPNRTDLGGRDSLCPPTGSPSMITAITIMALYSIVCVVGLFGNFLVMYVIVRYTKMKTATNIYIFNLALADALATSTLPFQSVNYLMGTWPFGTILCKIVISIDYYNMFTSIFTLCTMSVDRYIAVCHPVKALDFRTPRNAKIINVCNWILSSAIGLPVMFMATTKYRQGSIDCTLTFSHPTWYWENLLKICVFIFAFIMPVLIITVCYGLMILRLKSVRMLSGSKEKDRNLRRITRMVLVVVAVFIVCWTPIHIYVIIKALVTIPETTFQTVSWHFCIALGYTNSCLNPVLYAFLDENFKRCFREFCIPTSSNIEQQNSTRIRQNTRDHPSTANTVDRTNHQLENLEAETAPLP
pEC50: −log10 of the molar value.

- smiles text: "COc1cc2ccnc3c2c(c1O)NC=C3"
  pEC50: 5.22
- smiles text: "COC1=Cc2ccnc3ccnc(c23)C1=O"
  pEC50: 5.39
- smiles text: "O=C1c2ccccc2-[n+]2ccc3c([nH]c4cc(Br)ccc43)c21"
  pEC50: 5.38

---

biological target: UniProt:P35372; test: cell-based; assay type: cell-based

- smiles text: "O=C1c2ccccc2-[n+]2ccc3c([nH]c4ccccc43)c21"
  output unit: "µM"
  EC50: 6.3
- smiles text: "COc1cc2ccnc3c2c(c1OC)NC=C3"
  output unit: "µM"
  EC50: 10.1

---

biological target: human δ opioid receptor (δ-OR) (Homo sapiens); test: calcium mobilization assay, δ-OR agonist activity
Sequence (P41143 whole entry): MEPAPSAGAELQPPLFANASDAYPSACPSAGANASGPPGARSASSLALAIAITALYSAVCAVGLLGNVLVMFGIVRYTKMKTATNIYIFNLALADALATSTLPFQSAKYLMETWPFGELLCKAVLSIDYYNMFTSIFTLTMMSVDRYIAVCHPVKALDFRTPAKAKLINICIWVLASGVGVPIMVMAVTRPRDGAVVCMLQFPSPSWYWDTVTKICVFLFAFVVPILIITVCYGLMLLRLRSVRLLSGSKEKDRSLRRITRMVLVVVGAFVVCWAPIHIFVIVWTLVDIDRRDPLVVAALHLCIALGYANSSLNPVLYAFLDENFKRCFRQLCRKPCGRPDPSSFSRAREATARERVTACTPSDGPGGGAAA
pEC50: −log10 of the molar value.

- compound: "COc1cc2ccnc3c2c(c1OC)NC=C3 [aaptamine (10), aaptamine]"
  pEC50: 5.29
